Biological target: CCR4 (Homo sapiens)
Construct: host or cells: CHO-K1
Sequence (P51679 1-360): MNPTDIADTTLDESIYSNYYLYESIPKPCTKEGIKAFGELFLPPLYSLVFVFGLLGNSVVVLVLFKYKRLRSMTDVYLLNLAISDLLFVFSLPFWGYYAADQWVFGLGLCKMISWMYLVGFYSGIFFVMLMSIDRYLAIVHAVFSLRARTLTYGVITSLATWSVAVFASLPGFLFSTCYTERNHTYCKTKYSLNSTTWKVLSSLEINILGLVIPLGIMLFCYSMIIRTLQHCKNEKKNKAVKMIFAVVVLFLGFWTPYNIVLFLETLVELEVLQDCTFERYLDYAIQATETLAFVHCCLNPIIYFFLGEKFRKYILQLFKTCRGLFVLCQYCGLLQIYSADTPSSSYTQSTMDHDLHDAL
Test: PathHunter eXpress CCR4 CHO-K1 β-Arrestin GPCR Assay, antagonist format with CCL22
Assay type: cell-based
Settings: 10 nM CCL22, 0.003 uM
Readout Type: Raw Data

[[record]]
chain_sequence = "ACQTLCNTAEDIRCA [24-16-00-N001, bicyclic peptide ligand, TBMB scaffold, from CCR4 cell-based selection]"
observed_measurement = 169611

[[record]]
chain_sequence = "ACLNGCRNTNSQCA [24-11-00-N001, bicyclic peptide ligand, TATA scaffold, from CCR4 cell-based selection]"
observed_measurement = 157449

[[record]]
chain_sequence = "ACLSCARHGNQCA [24-12-00-N001, bicyclic peptide ligand, TATA scaffold, from CCR4 cell-based selection]"
observed_measurement = 192263


[A] ACQLTCLTPARQPGCA [24-14-00-N001, bicyclic peptide ligand, TATA scaffold, from CCR4 cell-based selection]
[B] ACPLMSSVNCTAGCA [24-13-00-N001, bicyclic peptide ligand, TBMB scaffold, from CCR4 cell-based selection]
Ask: Lowest Raw Data? choose A or B Select an item and report its label.
Result: A

* * *

Molecular target: CCR4 (Homo sapiens)
Construct: host or cells: CHO-K1
Sequence (P51679 1-360): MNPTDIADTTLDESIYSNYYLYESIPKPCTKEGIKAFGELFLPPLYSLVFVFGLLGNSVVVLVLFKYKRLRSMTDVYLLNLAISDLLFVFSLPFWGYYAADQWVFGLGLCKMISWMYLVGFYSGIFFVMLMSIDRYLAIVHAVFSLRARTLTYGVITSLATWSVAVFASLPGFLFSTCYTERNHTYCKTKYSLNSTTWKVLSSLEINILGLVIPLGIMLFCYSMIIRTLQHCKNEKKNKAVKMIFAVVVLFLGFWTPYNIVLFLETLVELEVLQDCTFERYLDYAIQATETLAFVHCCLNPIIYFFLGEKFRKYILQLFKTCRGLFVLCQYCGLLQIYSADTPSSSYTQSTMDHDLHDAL
Assay: PathHunter eXpress CCR4 CHO-K1 β-Arrestin GPCR Assay, antagonist format with CCL22
Assay type: cell-based
Settings: 1 nM CCL22, 16.7 uM
Readout Type: Raw Data

[[record]]
chain_sequence = "ACLNGCRNTNSQCA [24-11-00-N001, bicyclic peptide ligand, TATA scaffold, from CCR4 cell-based selection]"
readout_type = "Raw Data"
observed_measurement = 106271

[[record]]
chain_sequence = "ACQLTCLTPARQPGCA [24-14-00-N001, bicyclic peptide ligand, TATA scaffold, from CCR4 cell-based selection]"
readout_type = "Raw Data"
observed_measurement = 116828

[[record]]
chain_sequence = "ACRAVHSLRCLTTCA [24-17-00-N001, bicyclic peptide ligand, TATA scaffold, from CCR4 cell-based selection]"
readout_type = "Raw Data"
observed_measurement = 125610


* * *

Molecular target: CCR4 (Homo sapiens, UniProt P51679)
Construct: host or cells: CHO-K1
Sequence (P51679 1-360): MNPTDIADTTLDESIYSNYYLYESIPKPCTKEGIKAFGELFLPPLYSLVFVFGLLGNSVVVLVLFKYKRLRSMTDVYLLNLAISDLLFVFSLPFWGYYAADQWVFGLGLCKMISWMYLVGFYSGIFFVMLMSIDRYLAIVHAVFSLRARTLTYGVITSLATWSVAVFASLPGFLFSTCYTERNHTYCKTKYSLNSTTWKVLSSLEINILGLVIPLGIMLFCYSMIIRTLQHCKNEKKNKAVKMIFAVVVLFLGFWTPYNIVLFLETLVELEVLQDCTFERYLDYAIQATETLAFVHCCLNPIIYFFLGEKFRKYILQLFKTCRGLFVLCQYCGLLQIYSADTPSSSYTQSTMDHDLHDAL
Test: PathHunter eXpress CCR4 CHO-K1 β-Arrestin GPCR Assay, antagonist format with CCL22
Type: cell-based
Details: 1 nM CCL22, 50 uM
Readout Type: Raw Data

Worked examples, 2 sequences total:
[[record]]
chain_sequence = "ACRAVHSLRCLTTCA [24-17-00-N001, bicyclic peptide ligand, TATA scaffold, from CCR4 cell-based selection]"
observed_measurement = 114156

[[record]]
chain_sequence = "ACQTLCNTAEDIRCA [24-16-00-N001, bicyclic peptide ligand, TBMB scaffold, from CCR4 cell-based selection]"
observed_measurement = 107480


[1] ACPLMSSVNCTAGCA [24-13-00-N001, bicyclic peptide ligand, TBMB scaffold, from CCR4 cell-based selection]
[2] ACQLTCLPPPRQPGCA [24-15-00-N001, bicyclic peptide ligand, TATA scaffold, from CCR4 cell-based selection]
Ask: Task for the reader: decide whether 1 or 2 has the larger Raw Data. Select an item and report its label.
Result: 1
(1: 114497, 2: 37690)

* * *

Molecular target: CCR4 (Homo sapiens)
Construct: host or cells: CHO-K1
Sequence (P51679 1-360): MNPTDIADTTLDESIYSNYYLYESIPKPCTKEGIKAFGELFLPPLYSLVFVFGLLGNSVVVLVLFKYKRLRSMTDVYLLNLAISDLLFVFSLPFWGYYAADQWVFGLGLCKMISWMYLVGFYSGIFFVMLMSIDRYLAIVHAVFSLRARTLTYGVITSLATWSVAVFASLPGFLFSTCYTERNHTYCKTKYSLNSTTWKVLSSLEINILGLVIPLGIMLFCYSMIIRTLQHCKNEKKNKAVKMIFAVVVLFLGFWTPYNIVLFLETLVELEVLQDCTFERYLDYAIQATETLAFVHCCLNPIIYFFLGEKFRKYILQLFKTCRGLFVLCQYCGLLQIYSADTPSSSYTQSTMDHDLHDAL
Experiment: PathHunter eXpress CCR4 CHO-K1 β-Arrestin GPCR Assay, antagonist format with CCL22
Format: cell-based
Conditions: 1 nM CCL22, 0.6 uM
Readout Type: Raw Data

[[record]]
chain_sequence = "ACQTLCNTAEDIRCA [24-16-00-N001, bicyclic peptide ligand, TBMB scaffold, from CCR4 cell-based selection]"
test_target = "CCR4 (Homo sapiens)"
readout_type = "Raw Data"
observed_measurement = 213774

[[record]]
chain_sequence = "ACLSCARHGNQCA [24-12-00-N001, bicyclic peptide ligand, TATA scaffold, from CCR4 cell-based selection]"
test_target = "CCR4 (Homo sapiens)"
readout_type = "Raw Data"
observed_measurement = 195159


[P] ACRAVHSLRCLTTCA [24-17-00-N001, bicyclic peptide ligand, TATA scaffold, from CCR4 cell-based selection]
[Q] ACLNGCRNTNSQCA [24-11-00-N001, bicyclic peptide ligand, TATA scaffold, from CCR4 cell-based selection]
Ask: Task for the reader: decide whether P or Q has the larger Raw Data. Select an item and report its label.
Result: P

* * *

Target: CCR4 (Homo sapiens)
Construct: host or cells: CHO-K1
Sequence (P51679 1-360): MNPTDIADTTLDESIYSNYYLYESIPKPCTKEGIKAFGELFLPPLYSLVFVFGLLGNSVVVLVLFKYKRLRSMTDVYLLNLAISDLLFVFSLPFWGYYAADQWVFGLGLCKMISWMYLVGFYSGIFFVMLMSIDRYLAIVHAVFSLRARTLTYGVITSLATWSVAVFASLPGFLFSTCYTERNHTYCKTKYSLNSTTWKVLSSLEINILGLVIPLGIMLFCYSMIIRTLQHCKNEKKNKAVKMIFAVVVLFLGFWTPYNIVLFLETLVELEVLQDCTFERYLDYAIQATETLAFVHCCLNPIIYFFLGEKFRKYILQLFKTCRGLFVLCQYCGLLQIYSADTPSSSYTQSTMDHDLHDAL
Test: PathHunter eXpress CCR4 CHO-K1 β-Arrestin GPCR Assay, agonist format
Type: cell-based
Conditions: high concentration, 0.2 uM
Readout Type: Raw Data

[[record]]
chain_sequence = "ACQTLCNTAEDIRCA [24-16-00-N001, bicyclic peptide ligand, TBMB scaffold, from CCR4 cell-based selection]"
readout_type = "Raw Data"
observed_measurement = 13403

[[record]]
chain_sequence = "ACLNGCRNTNSQCA [24-11-00-N001, bicyclic peptide ligand, TATA scaffold, from CCR4 cell-based selection]"
readout_type = "Raw Data"
observed_measurement = 12202

[[record]]
chain_sequence = "ACLSCARHGNQCA [24-12-00-N001, bicyclic peptide ligand, TATA scaffold, from CCR4 cell-based selection]"
readout_type = "Raw Data"
observed_measurement = 13783

[[record]]
chain_sequence = "ACRAVHSLRCLTTCA [24-17-00-N001, bicyclic peptide ligand, TATA scaffold, from CCR4 cell-based selection]"
readout_type = "Raw Data"
observed_measurement = 15518

[[record]]
chain_sequence = "ACQLTCLTPARQPGCA [24-14-00-N001, bicyclic peptide ligand, TATA scaffold, from CCR4 cell-based selection]"
readout_type = "Raw Data"
observed_measurement = 13151

[[record]]
chain_sequence = "ACPLMSSVNCTAGCA [24-13-00-N001, bicyclic peptide ligand, TBMB scaffold, from CCR4 cell-based selection]"
readout_type = "Raw Data"
observed_measurement = 13560

[[record]]
chain_sequence = "ACQLTCLPPPRQPGCA [24-15-00-N001, bicyclic peptide ligand, TATA scaffold, from CCR4 cell-based selection]"
readout_type = "Raw Data"
observed_measurement = 13225

